These entries and their values trace back to ChEMBL document CHEMBL4387720.

- system.name: Epidermal growth factor receptor (Homo sapiens, UniProt P00533, G719S)
- Sequence (P00533 25-1210 G719S limits assumed): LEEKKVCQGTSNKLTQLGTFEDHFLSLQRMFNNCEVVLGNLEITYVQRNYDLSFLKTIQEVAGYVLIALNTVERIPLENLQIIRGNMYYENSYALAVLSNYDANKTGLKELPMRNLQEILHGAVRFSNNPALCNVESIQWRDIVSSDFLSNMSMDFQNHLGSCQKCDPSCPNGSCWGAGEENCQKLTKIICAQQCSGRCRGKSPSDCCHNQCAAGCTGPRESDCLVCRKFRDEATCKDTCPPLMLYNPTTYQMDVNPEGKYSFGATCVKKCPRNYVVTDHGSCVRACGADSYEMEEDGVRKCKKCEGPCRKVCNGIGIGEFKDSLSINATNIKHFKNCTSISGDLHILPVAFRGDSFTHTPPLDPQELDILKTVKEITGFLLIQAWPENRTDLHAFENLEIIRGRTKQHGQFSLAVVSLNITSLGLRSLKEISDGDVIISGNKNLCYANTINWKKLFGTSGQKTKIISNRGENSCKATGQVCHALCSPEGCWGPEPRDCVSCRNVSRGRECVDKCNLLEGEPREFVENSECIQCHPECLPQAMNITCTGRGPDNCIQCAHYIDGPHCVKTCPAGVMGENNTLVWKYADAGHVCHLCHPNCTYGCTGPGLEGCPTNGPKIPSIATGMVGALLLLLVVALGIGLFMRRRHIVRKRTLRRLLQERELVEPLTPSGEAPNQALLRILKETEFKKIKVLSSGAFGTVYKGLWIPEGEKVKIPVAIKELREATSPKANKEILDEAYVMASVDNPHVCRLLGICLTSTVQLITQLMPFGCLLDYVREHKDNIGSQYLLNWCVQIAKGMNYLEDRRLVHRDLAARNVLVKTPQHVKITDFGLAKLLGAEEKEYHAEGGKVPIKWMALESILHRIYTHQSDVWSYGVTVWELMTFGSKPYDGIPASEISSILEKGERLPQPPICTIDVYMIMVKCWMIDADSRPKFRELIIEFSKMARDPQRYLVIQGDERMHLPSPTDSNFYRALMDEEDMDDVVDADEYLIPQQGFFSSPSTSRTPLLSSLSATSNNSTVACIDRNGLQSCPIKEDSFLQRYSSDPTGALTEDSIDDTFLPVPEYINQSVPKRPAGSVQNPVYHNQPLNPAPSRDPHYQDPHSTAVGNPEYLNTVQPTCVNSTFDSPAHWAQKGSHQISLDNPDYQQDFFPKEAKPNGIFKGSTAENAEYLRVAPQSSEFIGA
- protocol.text: Binding affinity to human partial length EGFR G719S mutant (R669 to V1011 residues) expressed in bacterial expression system by KinomeScan assay
measured.parameter: Kd (nM)
Answers are plain numbers, in nM.

Fill in reported Kd for this entry: CCOc1cc2ncc(C#N)c(Nc3ccc(OCc4cccc(F)c4)c(Cl)c3)c2cc1NC(=O)CC1CCSS1 (stereo unspecified) 14

----------
- protocol.text: Half life in rat hepatocytes
- Assay type: ADME, cell-based, Hepatocyte
measured.parameter: half-life (min)
Numbers only, in min.

Fill in reported half-life for this entry: CCOc1cc2ncc(C#N)c(Nc3ccc(OCc4cccc(F)c4)c(Cl)c3)c2cc1NC(=O)CC1CCSS1 (stereo unspecified) 53.6
